biological target: Jak2 (UniProt O60674); assay: phosphorylation enrichment, bacterial display (enrichment ratio); higher = better substrate or ligand; peptides without Tyr show the background;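 also: 11-residue human phosphosite peptides and single-mutation variants displayed on the E. coli surface, counted by deep sequencing, each peptide's frequency after selection divided by its frequency in the unselected input library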;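 also: frequency after pTyr selection over input frequency; kinase dosed for 20-30% of maximal phosphorylation in three min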
Sequence (O60674 whole entry, looked up): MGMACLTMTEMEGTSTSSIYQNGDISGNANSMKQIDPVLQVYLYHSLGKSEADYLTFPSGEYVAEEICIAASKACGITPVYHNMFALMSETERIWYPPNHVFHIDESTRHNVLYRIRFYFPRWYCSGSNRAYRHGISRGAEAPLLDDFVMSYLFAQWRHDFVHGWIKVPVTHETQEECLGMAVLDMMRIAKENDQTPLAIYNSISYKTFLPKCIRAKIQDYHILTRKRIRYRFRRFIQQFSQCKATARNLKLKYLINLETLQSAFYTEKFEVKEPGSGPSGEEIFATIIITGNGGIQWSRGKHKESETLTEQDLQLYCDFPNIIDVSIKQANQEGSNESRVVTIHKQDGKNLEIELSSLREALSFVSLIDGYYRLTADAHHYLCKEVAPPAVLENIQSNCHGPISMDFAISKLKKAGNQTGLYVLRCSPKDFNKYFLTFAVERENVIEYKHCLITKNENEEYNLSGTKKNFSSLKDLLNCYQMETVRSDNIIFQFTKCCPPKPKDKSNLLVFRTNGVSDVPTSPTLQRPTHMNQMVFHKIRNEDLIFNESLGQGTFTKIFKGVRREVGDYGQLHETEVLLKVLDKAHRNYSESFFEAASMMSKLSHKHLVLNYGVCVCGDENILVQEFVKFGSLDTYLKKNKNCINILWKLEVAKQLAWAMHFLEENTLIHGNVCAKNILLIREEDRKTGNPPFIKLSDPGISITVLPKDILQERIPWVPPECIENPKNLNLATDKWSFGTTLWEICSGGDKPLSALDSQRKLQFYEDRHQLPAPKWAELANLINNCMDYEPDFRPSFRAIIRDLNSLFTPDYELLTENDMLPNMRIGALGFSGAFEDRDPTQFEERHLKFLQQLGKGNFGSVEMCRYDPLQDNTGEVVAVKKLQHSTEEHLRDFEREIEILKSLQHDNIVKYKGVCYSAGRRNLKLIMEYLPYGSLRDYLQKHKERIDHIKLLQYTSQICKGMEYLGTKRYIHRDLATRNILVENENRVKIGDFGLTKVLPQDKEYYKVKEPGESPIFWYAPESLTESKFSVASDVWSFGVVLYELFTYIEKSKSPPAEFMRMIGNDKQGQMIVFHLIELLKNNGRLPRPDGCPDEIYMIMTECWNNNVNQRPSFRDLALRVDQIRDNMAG
Threshold rule: phosphorylation enrichment greater than or equal to 1 is Y; below that, N.

Macromolecule sequence	Class name
PRIKTYMRPSP [TDP1_Y497_H493R]	N
KSVEEYANCHL [TF_Y593_P589S]	N
MFVKSYTIHFS [F5_Y2153_YF]	Y
LTFDEYRNNSQ [ANXA3_Y216_I219N]	Y
GYYDLYGGEKF [PTPN11_Y66_D61G]	Y
TEVIWYKGDEE	Y
GLGGVYGGASG [KRT8_Y54_G53V]	N
QTEAPYRFIFM [PTPN11_Y511_Q510P_YF]	Y
